# IC50 values compiled below
- Test system: MCF7
- PROCEDURE SUMMARY: Cytotoxicity against human MCF7 cells after 24 hrs
- Format: functional, cell-based
- MEASUREMENT CONDITIONS: Homo sapiens, MCF7, 24 h; read-out: IC50
Report only the number, with the unit µg/mL understood.

Guide cases for IC50, answers given:
CC1=CC(=O)[C@H]2C(C)(C)CCC[C@]2(C)[C@H]1/C=C/c1ccoc1 [HEDYCHENONE]	19.4
CC1(C)CCC[C@]2(C)[C@@H](/C=C/c3ccoc3)C(CO)=CC(=O)[C@@H]12 [YUNNACORONARIN D]	34.3
COC1CCC2C3C=C(/C=C/[C@H]4C(C)=CC(=O)[C@H]5C(C)(C)CCC[C@]45C)C(O3)C2O1 (stereo in doubt; 3g)	28.1
CC1=CC(=O)[C@H]2C(C)(C)CCC[C@]2(C)[C@H]1/C=C/C1=CC2OC1C1C(=O)c3ccccc3C(=O)C21 (stereo in doubt; 3k)	15
CC1=CC(=O)[C@H]2C(C)(C)CCC[C@]2(C)[C@H]1/C=C/C1=C[C@H]2O[C@H]1[C@@H]1C(=O)OC(=O)[C@@H]12	18.6

In the following, a different molecule is considered.
stdin: Please look up its IC50: CC1=CC(=O)[C@H]2C(C)(C)CCC[C@]2(C)[C@H]1/C=C/C1=CC2OC1C1CNCC21 (stereo in doubt; 3o)
stdout: 36.7

----------
- Tested on: CHO
- PROCEDURE SUMMARY: Cytotoxicity against CHO cells after 24 hrs
- Assay type: cell-based, Cricetulus griseus
- MEASUREMENT CONDITIONS: cho
RECORDED METRIC: IC50 (µg/mL)
Write it as a number; the unit µg/mL goes unstated.

Record excerpt, results attached:
CC1=CC(=O)[C@H]2C(C)(C)CCC[C@]2(C)[C@H]1/C=C/C1=CC2OC1C1C(=O)c3ccccc3C(=O)C21 (stereo in doubt; 3l)	7.91
CC1=CC(=O)[C@H]2C(C)(C)CCC[C@]2(C)[C@H]1/C=C/C1=C[C@H]2O[C@H]1[C@H]1C(=O)OC(=O)[C@H]12 (stereo in doubt; 3c)	11.08
COC1CCC2C3C=C(/C=C/[C@H]4C(C)=CC(=O)[C@H]5C(C)(C)CCC[C@]45C)C(O3)C2O1 (stereo in doubt; 3i)	13.91

Turning to the following compound.
stdin: Item under review: COC1CCC2C3OC(C=C3/C=C/[C@H]3C(C)=CC(=O)[C@H]4C(C)(C)CCC[C@]34C)C2O1 (stereo in doubt; 3j) . Reported IC50?
stdout: 14.03

----------
- Tested on: MCF7
- PROCEDURE SUMMARY: Cytotoxicity against human MCF7 cells after 24 hrs
- Type: functional, cell-based
- MEASUREMENT CONDITIONS: Homo sapiens, MCF7, 24 h; read-out: IC50
Assign labels as follows, please: Met for IC50 below 20 µg/mL; Not met for IC50 equal to or exceeding 20 µg/mL.

Solved entries:
CC1=CC(=O)[C@H]2C(C)(C)CCC[C@]2(C)[C@H]1/C=C/C1=C[C@H]2O[C@H]1[C@H]1C(=O)C=CC(=O)[C@H]12	Met
CC1CC(=O)[C@H]2C(C)(C)CCC[C@]2(C)[C@H]1CCc1ccoc1 (some centres not stated)	Not met
CC1=CC(=O)[C@H]2C(C)(C)CCC[C@]2(C)[C@H]1/C=C/C1=CC2OC1C1CCOC21 (some centres not stated)	Not met
CC1=CC(=O)[C@H]2C(C)(C)CCC[C@]2(C)[C@H]1/C=C/C1=C[C@H]2O[C@H]1[C@H]1C(=O)OC(=O)[C@H]12 (stereo in doubt; 3b)	Met
CC1(C)CCC[C@@]2(C)[C@H]1C(=O)CC(C)(C1(C)CC(=O)[C@H]3C(C)(C)CCC[C@]3(C)C1/C=C/c1ccoc1)[C@@H]2/C=C/c1ccoc1 (some centres not stated)	Met
CC1=CC(=O)[C@H]2C(C)(C)CCC[C@]2(C)[C@H]1C=O	Not met

stdin: Quick check: IC50 of "CC1=CC(=O)[C@H]2C(C)(C)CCC[C@]2(C)[C@H]1/C=C/C1=C[C@H]2O[C@H]1[C@@H]1C(=O)C=CC(=O)[C@@H]12" under 20 µg/mL?
stdout: Met

stdin: hey, is IC50 for COC1CCC2C3OC(C=C3/C=C/[C@H]3C(C)=CC(=O)[C@H]4C(C)(C)CCC[C@]34C)C2O1 (stereo in doubt; 3h) lower than 20 µg/mL or not?
stdout: Not met

stdin: Please indicate whether the reported IC50 of "CC1=CC(=O)[C@H]2C(C)(C)CCC[C@]2(C)[C@H]1/C=C/C1=C[C@@H]2O[C@@H]1[C@H]1C(=O)OC(=O)[C@H]12" is strictly below 20 µg/mL.
stdout: Not met

stdin: Below 20 µg/mL on IC50? Entry CC1=CC(=O)[C@H]2C(C)(C)CCC[C@]2(C)[C@H]1/C=C/C1=CC2OC1C1OCCC21 (some centres not stated)
stdout: Not met

stdin: In the record for "CC1=CC(=O)[C@H]2C(C)(C)CCC[C@]2(C)[C@H]1CCc1ccoc1" , is IC50 less than 20 µg/mL?
stdout: Not met

----------
- System: A549
- PROCEDURE SUMMARY: Cytotoxicity against human A549 cells after 24 hrs
- Assay type: functional, cell-based
- MEASUREMENT CONDITIONS: Homo sapiens, A549, 24 h; read-out: IC50
Response field label: string, one of Criterion met (IC50 strictly below 40 µg/mL) or Criterion not met.

CC1=CC(=O)[C@H]2C(C)(C)CCC[C@]2(C)[C@H]1/C=C/C1=CC2OC1C1C(=O)c3ccccc3C(=O)C21 (stereo in doubt; 3l)	Criterion met
CC1=CC(=O)[C@H]2C(C)(C)CCC[C@]2(C)[C@H]1/C=C/C1=C[C@H]2O[C@H]1[C@H]1C(=O)OC(=O)[C@H]12 (stereo in doubt; 3b)	Criterion met
CC1=CC(=O)[C@H]2C(C)(C)CCC[C@]2(C)[C@H]1/C=C/C1=CC2OC1C1OCCC21 (some centres not stated)	Criterion not met
COC1CCC2C3C=C(/C=C/[C@H]4C(C)=CC(=O)[C@H]5C(C)(C)CCC[C@]45C)C(O3)C2O1 (stereo in doubt; 3g)	Criterion not met
COC1CCC2C3OC(C=C3/C=C/[C@H]3C(C)=CC(=O)[C@H]4C(C)(C)CCC[C@]34C)C2O1 (stereo in doubt; 3h)	Criterion not met

--- query ---
stdin: # strict comparison: is reported IC50 < 40 µg/mL? input = "CC1(C)CCC[C@]2(C)[C@@H](/C=C/c3ccoc3)C(CO)=CC(=O)[C@@H]12"
stdout: Criterion not met

----------
- System: MCF7
- PROCEDURE SUMMARY: Cytotoxicity against human MCF7 cells after 24 hrs
- Format: functional, cell-based
- MEASUREMENT CONDITIONS: mcf7
RECORDED METRIC: IC50 (µg/mL)
Give your result in µg/mL as a bare value.

COC1CCC2C3C=C(/C=C/[C@H]4C(C)=CC(=O)[C@H]5C(C)(C)CCC[C@]45C)C(O3)C2O1 (stereo in doubt; 3i)	29.3
CC1=CC(=O)[C@H]2C(C)(C)CCC[C@]2(C)[C@H]1/C=C/C1=CC2OC1C1C(=O)c3ccccc3C(=O)C21 (stereo in doubt; 3l)	14.72
CC1=CC(=O)[C@H]2C(C)(C)CCC[C@]2(C)[C@H]1/C=C/C1=CC2OC1C1CNCC21 (stereo in doubt; 3p)	31.98

Now look at this entry.
stdin: GET /values?readout=IC50&system=MCF7&item= CC1=CC(=O)[C@H]2C(C)(C)CCC[C@]2(C)[C@H]1/C=C/C1=C[C@H]2O[C@H]1[C@H]1C(=O)OC(=O)[C@H]12 (stereo in doubt; 3c)
stdout: 23.18

----------
- Tested on: A549
- PROCEDURE SUMMARY: Cytotoxicity against human A549 cells after 24 hrs
- Format: functional, cell-based
- MEASUREMENT CONDITIONS: Homo sapiens, A549, 24 h; read-out: IC50
RECORDED METRIC: IC50 (µg/mL)
Write the answer as a number in µg/mL, unit excluded.

Some solved cases for reference:
CC1=CC(=O)[C@H]2C(C)(C)CCC[C@]2(C)[C@H]1/C=C/C1=C[C@H]2O[C@H]1[C@H]1C(=O)C=CC(=O)[C@H]12	35.9
CC1=CC(=O)[C@H]2C(C)(C)CCC[C@]2(C)[C@H]1/C=C/c1ccoc1	33.1
CC1(C)CCC[C@@]2(C)[C@H]1C(=O)CC(C)(C1(C)CC(=O)[C@H]3C(C)(C)CCC[C@]3(C)C1/C=C/c1ccoc1)[C@@H]2/C=C/c1ccoc1 (some centres undefined)	23

Consider the record given below.
stdin: Value lookup for IC50; key = "CC1=CC(=O)[C@H]2C(C)(C)CCC[C@]2(C)[C@H]1[C@@H]1O[C@@H]1c1ccoc1"
stdout: 31.1
